# measurement_target: T1, human [1-305]-mouse chimeric EL (human; mouse, UniProt Q9WVG5 306-500)
# T1 construct: Heparin extract, captured or detected by an anti-C2-tag antibody; also called human-mouse chimeric EL
# T1 sequence: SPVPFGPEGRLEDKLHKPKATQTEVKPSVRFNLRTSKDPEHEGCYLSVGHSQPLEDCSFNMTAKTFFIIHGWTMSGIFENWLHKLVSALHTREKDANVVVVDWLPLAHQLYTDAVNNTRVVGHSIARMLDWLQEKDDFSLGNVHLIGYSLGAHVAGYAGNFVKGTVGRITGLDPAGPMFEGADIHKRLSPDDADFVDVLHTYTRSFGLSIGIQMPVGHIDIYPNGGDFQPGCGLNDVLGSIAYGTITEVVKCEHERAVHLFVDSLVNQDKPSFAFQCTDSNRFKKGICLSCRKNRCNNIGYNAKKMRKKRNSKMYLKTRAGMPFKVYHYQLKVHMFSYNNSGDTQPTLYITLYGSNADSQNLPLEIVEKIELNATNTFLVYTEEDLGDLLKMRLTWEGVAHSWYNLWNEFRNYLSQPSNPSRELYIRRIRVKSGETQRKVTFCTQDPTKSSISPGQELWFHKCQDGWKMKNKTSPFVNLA
# assay_overview: Biacore; EL captured by anti-C2-tag Ab; bivalent fit
# Experimental: The binding affinities of anti-EL antibodies were measured using Biacore. […] Then, anti-EL humanized antibodies were added and the binding affinities were calculated by bivalent fitting of BIAevaluation software.
property_measured: Kd (nM)
Write down the numeric answer in nM and omit the unit.

| binder | property_measured | test_value |
| --- | --- | --- |
| h16B3-F2 (antibody, V domains shown, humanized) VH: EVQLVESGGGLVQPGGSLRLSCAASGFTFSGYTMSWVRQAPGKGLEWVSEISFARDRAFYPDTVKGRFTISRDNSKNTLYLQMNSLRAEDTAVYYCARLGGRNHDYWYFDVWGQGTTVTVSS VL: EIVMTQSPATLSVSPGERATLSCRASESVEYYGTSLMQWYQQKPGQAPRLLIYAASNVESGIPARFSGSGSGTEFTLTISSLQSEDFAVYYCQQSWKVPFTFGQGTKLEIK | Kd | 3.8 |

Query: Tell me the measured Kd of h16B3-S7 (antibody, V domains shown, humanized) VH: EVQLVESGGGLVQPGGSLRLSCAASGFTFSAYTMSWVRQAPGKGLEWVSDISFARDRAFYPDTVKGRFTISRDNSKNTLYLQMNSLRAEDTAVYYCARLGGKNRDFWYFDLWGQGTTVTVSS VL: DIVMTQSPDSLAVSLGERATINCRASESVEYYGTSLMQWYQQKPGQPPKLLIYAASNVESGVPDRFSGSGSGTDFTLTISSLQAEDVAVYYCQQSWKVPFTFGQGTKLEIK , please.
Result: 1.2

Query: Tell me the measured Kd of h16B3-S4 (antibody, V domains shown, humanized) VH: EVQLVESGGGLVQPGGSLRLSCAASGFTFSGYTMSWVRQAPGKGLEWVSEISFARDRAFYPDTVKGRFTISRDNSKNTLYLQMNSLRAEDTAVYYCARLGGKNHDFWYFDVWGQGTTVTVSS VL: DIVMTQSPDSLAVSLGERATINCRASESVEYYGTSLMQWYQQKPGQPPKLLIYAASNVESGVPDRFSGSGSGTDFTLTISSLQAEDVAVYYCQQSWRVPFTFGQGTKLEIK , please.
Result: 3

Query: Tell me the measured Kd of h55A1-S3 (antibody, V domains shown, humanized) VH: QVQLVQSGSELKKPGASVKVSCKASGYTFTNYGLNWVRQAPGQGLEWMGWINTYSGVPTYAGDFKGRFVFSLDTSVSTAYLQISSLKAEDTAVYYCARRGYYGRRFFDVWGKGTTVTVSS VL: DIVLTQSPASLAVSPGQRATITCKASQSVDYDVDSYMHWYQQKPGQPPKLLIYAASNLASGVPARFSGSGSGTDFTLTINPVEANDTANYYCQNTIEDPPTFGGGTKVEIK , please.
Result: 4.2

Query: Tell me the measured Kd of h16B3-S2 (antibody, V domains shown, humanized) VH: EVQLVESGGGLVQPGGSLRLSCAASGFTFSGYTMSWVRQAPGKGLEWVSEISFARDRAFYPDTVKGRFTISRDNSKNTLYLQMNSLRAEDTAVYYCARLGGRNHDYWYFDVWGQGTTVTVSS VL: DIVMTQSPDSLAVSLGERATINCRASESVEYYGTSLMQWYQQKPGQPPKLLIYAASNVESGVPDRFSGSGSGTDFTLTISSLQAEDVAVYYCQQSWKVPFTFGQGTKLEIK , please.
Result: 9.3

Query: Tell me the measured Kd of h16B3-S8 (antibody, V domains shown, humanized) VH: EVQLVESGGGLVQPGGSLRLSCAASGFTFSAYTMSWVRQAPGKGLEWVSDISFARDRAFYPDTVKGRFTISRDNSKNTLYLQMNSLRAEDTAVYYCARLGGKNRDFWYFDLWGQGTTVTVSS VL: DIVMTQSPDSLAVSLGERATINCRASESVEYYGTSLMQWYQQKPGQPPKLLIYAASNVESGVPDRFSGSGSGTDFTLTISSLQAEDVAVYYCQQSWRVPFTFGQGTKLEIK , please.
Result: 0.78

Where do the numbers come from? From patent US20200071424A1.
